assay: Inhibition of Klebsiella pneumonia recombinant BPL using 3H-biotin as substrate after 10 mins by liquid scintillation counting analysis; design: species or system Klebsiella pneumoniae; conditions: read-out: Ki(app)
Metric name: Ki (µM)
Write the number in µM without appending the unit.

The recorded Ki for entry `Nc1ncnc2c1ncn2[C@@H]1O[C@H](COP(=O)(O)OCCCCC[C@@H]2SC[C@@H]3NC(=O)N[C@@H]32)[C@@H](O)[C@H]1O` equals 0.482

###

test: Inhibition of Staphylococcus aureus recombinant BPL using 3H-biotin as substrate after 10 mins by liquid scintillation counting analysis; conditions: read-out: Ki(app)
Metric name: Ki (nM)
Write the number in nM without appending the unit.

The recorded Ki for entry `Nc1ncnc2c1ncn2[C@@H]1O[C@H](COP(=O)(O)OCCCCC[C@@H]2SC[C@@H]3NC(=O)N[C@@H]32)[C@@H](O)[C@H]1O` equals 18
